test: Toxicity liver stage against HepG2, at 10uM; format: cell-based; set-up: test concentration 10 uM, cell line HepG2-A16-CD81EGFP; conditions: human, HepG2-A16-CD81EGFP cells; read-out: INHIBITION
# cytotoxicity at 10 µM annotations
Give a bare numeral; the unit % is implied.

- Cn1nc(Cn2ccnc2)c2c1CN(C(=O)c1ccc[nH]1)C2: -62.7

Prompt: What value of measured cytotoxicity at 10 µM is listed for Cc1cc(-c2cnc(N3CCCC3)nc2C(C)C)on1 ?
Response: 5.14

Prompt: What value of measured cytotoxicity at 10 µM is listed for CC(=O)N1CCOC[C@H](OCC(=O)N(C)C)C1 ?
Response: -1.13

Prompt: What value of measured cytotoxicity at 10 µM is listed for Cc1nc2c(c(NCCc3nc4c(s3)CCCC4)n1)CCNCC2 ?
Response: -7.33

Prompt: What value of measured cytotoxicity at 10 µM is listed for CC(C)c1[nH]c2ncccc2c1CN1CCOCC1 ?
Response: 0.752

Prompt: What value of measured cytotoxicity at 10 µM is listed for CCN(CC)C(=O)Cn1c(=O)n(Cc2ccco2)c2ncccc21 ?
Response: -6.77

Prompt: What value of measured cytotoxicity at 10 µM is listed for COc1cc(CNC(C)Cn2ccnc2)cc2c1OCCO2 (centres undefined) ?
Response: -94.1

Prompt: What value of measured cytotoxicity at 10 µM is listed for CN1CC[C@H](N(Cc2ccccc2)Cc2ccccc2)C[C@H](O)C1 ?
Response: -5.96

Prompt: What value of measured cytotoxicity at 10 µM is listed for Cc1ccccc1CC(=O)N1C[C@@H](O)[C@H](N2CCOCC2)C1 ?
Response: -4.05

Prompt: What value of measured cytotoxicity at 10 µM is listed for Cc1cc(C)n(C2CN(Cc3noc(-c4ccccc4)n3)C2)n1 ?
Response: -12.8

Prompt: What value of measured cytotoxicity at 10 µM is listed for CC(C)c1nnc2n1CC(CNCc1cccnc1)CC2 (centres undefined) ?
Response: 6.59

Prompt: What value of measured cytotoxicity at 10 µM is listed for O=C(C1CC1)N1C[C@@H](F)[C@@H](OCc2nc3ccccc3o2)C1 ?
Response: -1.94

Prompt: What value of measured cytotoxicity at 10 µM is listed for CN1C(=O)c2cccc(NC(=O)c3cccc(S(C)(=O)=O)c3)c2C1=O ?
Response: -7.75

Prompt: What value of measured cytotoxicity at 10 µM is listed for CCN(CC)c1ccc(CNC(=O)c2cnc(C)cn2)cn1 ?
Response: 6.21

Prompt: What value of measured cytotoxicity at 10 µM is listed for CC(C)COc1cncc(N(C)C2CCN(c3ncccn3)CC2)n1 ?
Response: 0.583

Prompt: What value of measured cytotoxicity at 10 µM is listed for Cc1cc2ccncc2n1CC1(O)CCN(C(=O)c2ccccn2)CC1 ?
Response: 0.166

----------
experiment: Toxicity liver stage against HepG2, at 10uM; assay type: cell-based; parameters: test concentration 10 uM, cell line HepG2-A16-CD81EGFP; conditions: human, HepG2-A16-CD81EGFP cells; read-out: INHIBITION
Where cytotoxicity at 10 µM equals or exceeds -10%, the correct label is 1; where it does not, the label is 0.

Prompt: API: above_or_equal(metric=cytotoxicity at 10 µM, cutoff=-10%) for item CSCCc1ccc(NC(=O)NCc2ccnc(N(C)C)c2)cc1
Response: 1

Prompt: API: above_or_equal(metric=cytotoxicity at 10 µM, cutoff=-10%) for item Cc1noc([C@H]2COC[C@H]3CN(C(=O)Cc4cccc(F)c4)C[C@H]32)n1
Response: 1

Prompt: API: above_or_equal(metric=cytotoxicity at 10 µM, cutoff=-10%) for item CN(C)CCNC(=O)c1cc2c(s1)CCN2S(C)(=O)=O
Response: 1

Prompt: API: above_or_equal(metric=cytotoxicity at 10 µM, cutoff=-10%) for item Cc1[nH]nc(CCC(=O)N2CCc3c(nc[nH]c3=O)C2)c1C
Response: 1

Prompt: API: above_or_equal(metric=cytotoxicity at 10 µM, cutoff=-10%) for item COC[C@H](C)Nc1cc(C)c2ccc(SC)cc2n1
Response: 1

Prompt: API: above_or_equal(metric=cytotoxicity at 10 µM, cutoff=-10%) for item Cc1nc(C2CCCN(C(=O)c3csc(C)n3)C2)no1 (stereo unspecified)
Response: 1

Prompt: API: above_or_equal(metric=cytotoxicity at 10 µM, cutoff=-10%) for item CCC(CC)NCC(c1ccccn1)N1CCOCC1 (stereo unspecified)
Response: 0
